- assayed.system: T1, human B7-H3 expressed by Mile Sven 1 cells stably transfected to express human B7-H3 (MS1-B7-H3) (human, UniProt Q5ZPR3 29-534)
- T1 construct: whole, on cells; In the FACS sorts it was used as detergent solubilized, non-specifically biotinylated MS1-B7-H3 cell lysate; also called CD276; MS1-B7-H3 cells
- T1 sequence (looked up): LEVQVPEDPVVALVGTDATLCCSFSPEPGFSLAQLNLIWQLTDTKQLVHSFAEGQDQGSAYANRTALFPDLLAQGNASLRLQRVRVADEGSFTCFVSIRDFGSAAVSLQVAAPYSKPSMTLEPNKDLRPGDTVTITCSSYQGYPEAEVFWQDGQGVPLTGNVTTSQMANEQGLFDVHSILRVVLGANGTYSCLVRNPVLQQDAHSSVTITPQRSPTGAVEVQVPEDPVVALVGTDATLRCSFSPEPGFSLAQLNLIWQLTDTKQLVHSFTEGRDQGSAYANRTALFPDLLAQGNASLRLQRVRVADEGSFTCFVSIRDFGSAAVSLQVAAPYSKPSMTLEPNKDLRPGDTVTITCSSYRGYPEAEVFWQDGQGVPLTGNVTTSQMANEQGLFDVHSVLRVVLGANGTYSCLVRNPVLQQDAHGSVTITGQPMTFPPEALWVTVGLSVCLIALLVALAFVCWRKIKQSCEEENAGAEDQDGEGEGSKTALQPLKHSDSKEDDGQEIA
- assay: flow cytometry titration of purified His6-tagged Gp2 on MS1-B7-H3 cells, anti-His6 FITC, 1:1 model
assay.readout: Kd (nM)
Unit nM implied. Number only.

Prompt: What does the data say about its Kd? Entry: Gp2 1.4.4 (designed binder, Purified from E. coli (pET-24b, NheI/BamHI cloning)) KFWATVQHVYSDFGFEAPVYAATLDEALQLAEVQYANSIFTVTRVRPHHHHHH
Completion: 1

Next:
Prompt: What does the data say about its Kd? Entry: Gp2 1.4.3 (designed binder, Purified from E. coli (pET-24b, NheI/BamHI cloning)) KFWATVQHVYSDFGFEVPVYAATLDEALQLAEVRYANSIFMVTRVRPHHHHHH
Completion: 3.4
